All values here come from patent US20150232546A1.

- subject-of-test: Recombinant human PDGF-C from R&D Systems (1687-CC/CF; Val235-Gly345) (human, UniProt Q9NRA1 235-345)
- Sequence (Q9NRA1 235-345 limits assumed, form in doubt): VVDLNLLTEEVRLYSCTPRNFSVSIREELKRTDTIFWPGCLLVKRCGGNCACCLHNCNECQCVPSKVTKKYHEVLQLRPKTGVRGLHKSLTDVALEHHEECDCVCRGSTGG
- measurement-description: cell-based or functional assay
readout-label: % PDGF-Rα activation by PDGF-C allowed at 1.85 µg/mL antibody (100% = no antibody)

I have this binder here, anti-PDGF-C antibody 29H1 (antibody, IgG1, V domains shown, Mouse monoclonal from hybridoma, IgG1, kappa; also called mAb 29H1; hybridoma LMBP 9487CB) VH: EVQLVESGGDLVKPGGSLKLSCAASGFTFSNYGMSWVRQTPDKRLEWVATIGSGGHYTYYPDSVKGRFTISRDSAKSTLYLQMSSLRSDDTAIYYCARQAPLWDCSDYWGQGTTLTVSS VL: DVLMTQTPLSLPVSLGDQASISCRSNQSIVHSNGDTYLEWYLQKPGQSPNLLIYKVSNRFSGVPDRFSGSGSGTDFTLKISRVEAEDLGVYYCFQGSHVPPTFGGGTKLEIK , and I need its recorded % PDGF-Rα activation by PDGF-C allowed at 1.85 µg/mL antibody (100% = no antibody).
23%
